Property: Kd; scope: individual binders
measured_target: T1, human CTLA-4-Fc (Chimerigen) (human, UniProt P16410 36-161; P01857 99-330 = IgG part, limits assumed)
T1 construct: extracellular domain;domain: Fc portion; Bought protein; also called hCTLA-4-Fc; huCTLA-4-Ig
T1 sequence (P16410 other isoform, or with tags, fused parts or gaps mutant limits assumed): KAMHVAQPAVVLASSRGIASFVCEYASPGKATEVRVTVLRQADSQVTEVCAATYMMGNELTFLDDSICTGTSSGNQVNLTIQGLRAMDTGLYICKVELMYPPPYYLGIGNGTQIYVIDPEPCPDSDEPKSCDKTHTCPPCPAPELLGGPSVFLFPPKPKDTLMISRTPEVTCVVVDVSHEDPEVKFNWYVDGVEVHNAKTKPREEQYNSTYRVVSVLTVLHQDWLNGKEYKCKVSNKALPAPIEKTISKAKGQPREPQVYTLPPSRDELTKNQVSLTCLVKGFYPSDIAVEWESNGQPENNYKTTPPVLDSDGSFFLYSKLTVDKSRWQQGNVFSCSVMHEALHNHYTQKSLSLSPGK
protocol_description: SPR as in Example 9

>  <binder>
hNGAL mutein F92.1-J08 (designed binder, also called CTLA-4-J08) QDSTSDLIPAPPLSKVPLQQNFQDNQFHGKWYVVGLAGNRILRDDQHPMNMYATIYELKEDKSYNVTSVIFPHKKCEYTIATFVPGSQPGEFTLGNIKSYGDKTSYLVRVVSTNYNQYAVVFFKLAEDNAEFFAITIYGRTKELASELKENFIRFSKSLGLPENHIVFPVPIDQCIDGSAWSHPQF

>  <Kd>
12.8 nM

$$$$
>  <binder>
hNGAL mutein S140.4-O10 without T7 tag (designed binder, also called S140.4-O10 (-T7 tag); S140.4-O10(-T7)) QDSTSDLIPAPPLSKVPLQQNFQDNQFHGKWYVVGLAGNRILRDDQHPMNMYATIYELKEDKSYNVTSVISSHKKCEYTIATFVPGSQPGEFTLGNIKSYGDKTSYLVRVVSTDYNQYAVVFFKLAEDNAEFFAITIYGRTKELASELKENFIRFSKSLGLPENHIVFPVPIDQCIDG

>  <Kd>
3.9 nM

$$$$
>  <binder>
hNGAL mutein S140.4-B16 (designed binder, tagged entry not tied to the name; not shown: N-terminal T7 detection tag from vector phNGAL37; C-terminal Strep-tag II from vector phNGAL37) QDSTSDLIPAPPLSKVPLQQNFQDNQFHGKWYVVGLAGNRILRDDQHPMNMYATIYELKEDKSYNVTSVIFPHKKCEYTIATFVPGSQPGEFTLSDIKSYGDKTSYLVRVVSTDYNQYAVVFFKLAEDNAEFFAITIYGRTKELASELKENFIRFSKSLGLPENHIVFPVPIDQCIDG

>  <Kd>
68 nM

$$$$

Provenance of the data: patent US20090042785A1
